Data origin: patent US8536183B2

Entries and their measured IC50 follow.
assay.target: hCaV2.2 (Homo sapiens)
Construct: expressed in transfected cells; plasmids pCIN5-hCaV2.2, pCIH-hCaV β3, pCIP-α2δ1
Sequence (Q00975 whole entry): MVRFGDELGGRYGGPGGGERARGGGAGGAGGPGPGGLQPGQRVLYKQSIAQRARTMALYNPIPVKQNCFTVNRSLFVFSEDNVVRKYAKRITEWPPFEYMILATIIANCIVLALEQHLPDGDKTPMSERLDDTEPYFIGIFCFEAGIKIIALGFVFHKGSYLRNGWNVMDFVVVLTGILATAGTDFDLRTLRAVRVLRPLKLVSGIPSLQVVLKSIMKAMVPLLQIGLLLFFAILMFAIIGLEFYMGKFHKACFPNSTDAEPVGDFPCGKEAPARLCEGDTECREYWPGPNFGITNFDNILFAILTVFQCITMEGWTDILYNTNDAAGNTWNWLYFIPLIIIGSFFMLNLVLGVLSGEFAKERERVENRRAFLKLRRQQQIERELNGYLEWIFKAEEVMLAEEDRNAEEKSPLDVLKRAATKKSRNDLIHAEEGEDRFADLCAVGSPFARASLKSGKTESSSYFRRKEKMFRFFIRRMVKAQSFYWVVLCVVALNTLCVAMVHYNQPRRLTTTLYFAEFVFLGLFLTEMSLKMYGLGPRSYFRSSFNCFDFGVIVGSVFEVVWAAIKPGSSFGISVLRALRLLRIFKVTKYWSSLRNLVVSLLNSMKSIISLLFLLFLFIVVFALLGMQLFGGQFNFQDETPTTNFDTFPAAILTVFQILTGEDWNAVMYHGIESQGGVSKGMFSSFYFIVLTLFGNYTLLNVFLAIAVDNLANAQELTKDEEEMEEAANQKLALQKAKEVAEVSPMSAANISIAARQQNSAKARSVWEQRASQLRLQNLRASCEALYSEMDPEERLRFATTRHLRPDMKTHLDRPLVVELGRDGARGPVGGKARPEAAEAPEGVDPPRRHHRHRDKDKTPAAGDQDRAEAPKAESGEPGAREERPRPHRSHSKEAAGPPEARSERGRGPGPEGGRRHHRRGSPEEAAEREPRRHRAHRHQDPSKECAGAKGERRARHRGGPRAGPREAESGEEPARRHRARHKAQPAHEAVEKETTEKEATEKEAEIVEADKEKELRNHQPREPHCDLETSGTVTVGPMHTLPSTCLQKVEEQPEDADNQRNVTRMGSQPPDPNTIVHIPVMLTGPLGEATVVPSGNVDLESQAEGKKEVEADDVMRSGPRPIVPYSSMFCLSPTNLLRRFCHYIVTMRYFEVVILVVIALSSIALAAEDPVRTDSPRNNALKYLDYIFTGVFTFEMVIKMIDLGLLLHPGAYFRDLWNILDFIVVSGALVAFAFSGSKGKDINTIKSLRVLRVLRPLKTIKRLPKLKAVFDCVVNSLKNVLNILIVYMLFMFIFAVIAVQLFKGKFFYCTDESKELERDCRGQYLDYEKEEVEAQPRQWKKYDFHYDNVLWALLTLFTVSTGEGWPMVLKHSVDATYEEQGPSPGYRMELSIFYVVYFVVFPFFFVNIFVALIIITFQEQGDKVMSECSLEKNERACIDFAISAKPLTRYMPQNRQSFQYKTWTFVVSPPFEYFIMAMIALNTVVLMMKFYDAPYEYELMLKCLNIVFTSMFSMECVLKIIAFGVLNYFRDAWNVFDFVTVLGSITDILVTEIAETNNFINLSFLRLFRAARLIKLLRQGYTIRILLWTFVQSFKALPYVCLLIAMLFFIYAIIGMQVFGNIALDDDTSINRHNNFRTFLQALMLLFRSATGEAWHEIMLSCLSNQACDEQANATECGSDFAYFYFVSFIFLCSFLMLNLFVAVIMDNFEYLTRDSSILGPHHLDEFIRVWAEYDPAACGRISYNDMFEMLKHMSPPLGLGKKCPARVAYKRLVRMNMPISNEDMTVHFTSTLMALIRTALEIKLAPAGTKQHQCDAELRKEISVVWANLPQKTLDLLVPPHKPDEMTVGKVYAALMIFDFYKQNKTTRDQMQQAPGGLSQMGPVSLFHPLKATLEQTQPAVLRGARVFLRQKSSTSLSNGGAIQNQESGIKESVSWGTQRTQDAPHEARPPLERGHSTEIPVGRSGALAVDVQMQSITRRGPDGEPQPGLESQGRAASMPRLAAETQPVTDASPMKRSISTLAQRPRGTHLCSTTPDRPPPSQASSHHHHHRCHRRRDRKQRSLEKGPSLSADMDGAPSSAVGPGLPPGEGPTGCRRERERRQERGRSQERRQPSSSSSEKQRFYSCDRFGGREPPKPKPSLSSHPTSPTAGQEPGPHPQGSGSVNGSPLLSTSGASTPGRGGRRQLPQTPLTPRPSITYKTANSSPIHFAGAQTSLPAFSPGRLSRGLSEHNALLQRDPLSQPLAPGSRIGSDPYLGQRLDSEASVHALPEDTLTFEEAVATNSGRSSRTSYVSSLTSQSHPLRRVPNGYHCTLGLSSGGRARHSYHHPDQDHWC
test.description: hCaV2.2 assay, IonWorks planar array electrophysiology in stably transfected HEK293 cells
Type: cell-based
measurement.conditions: current elicited by the 1st depolarising pulse inhibited by 50%; HEK293 cells expressing human CaV2.2 alpha/beta3/alpha2delta1; read-out: mean pIC50 (tonic pIC50) (converted)
Counter-ions that a name gives are not always drawn.
assay.metric: IC50

| compound | assay.target | result |
| --- | --- | --- |
| C[C@H]1CN(S(=O)(=O)c2ccc(C(F)(F)F)cc2)CCN1C(=O)c1ccc(N2CCC2)nc1 [Example 45, hydrochloride] | hCaV2.2 (Homo sapiens) | ≥ 10 µM |
| C[C@H]1CN(S(=O)(=O)c2ccc(C(F)(F)F)cc2)CCN1C(=O)c1ccc(N(C)C)nc1 [Example 41, hydrochloride] | hCaV2.2 (Homo sapiens) | ≥ 10 µM |
| CNc1ccc(C(=O)N2CCN(S(=O)(=O)c3ccc(C#N)cc3C)C[C@@H]2C)c(C)n1 | hCaV2.2 (Homo sapiens) | ≥ 31.6 µM |
| Cc1ccc(C(=O)N2CCN(S(=O)(=O)c3ccc(C(F)(F)F)cc3C)CC2)cn1 | hCaV2.2 (Homo sapiens) | ≥ 31.6 µM |
| COc1ncccc1C(=O)N1CCN(S(=O)(=O)c2ccc(C(F)(F)F)cc2)C[C@@H]1C | hCaV2.2 (Homo sapiens) | ≥ 31.6 µM |
| Cc1ccc(C(=O)N2CCN(S(=O)(=O)c3ccc(OC(F)(F)F)cc3)CC2)cn1 | hCaV2.2 (Homo sapiens) | ≥ 31.6 µM |
| Cc1ncccc1C(=O)N1CCN(S(=O)(=O)c2ccc(OC(F)(F)F)cc2)C[C@H]1C [Example 58] | hCaV2.2 (Homo sapiens) | ≥ 31.6 µM |
| Cc1ccc(C(=O)N2CCN(S(=O)(=O)c3cc(C(F)(F)F)ccc3C)CC2)cn1 | hCaV2.2 (Homo sapiens) | ≥ 31.6 µM |
| Cc1ccc(C(=O)N2CCN(S(=O)(=O)c3ccc(C(F)(F)F)cc3)C[C@@H]2C)c(C)n1 | hCaV2.2 (Homo sapiens) | ≥ 10 µM |

====

assay.target: hCaV2.2 (Homo sapiens)
Construct: expressed in transfected cells; plasmids pCIN5-hCaV2.2, pCIH-hCaV β3, pCIP-α2δ1
test.description: hCaV2.2 assay, IonWorks planar array electrophysiology in stably transfected HEK293 cells
Assay type: cell-based
measurement.conditions: current elicited by the 1st depolarising pulse inhibited by 50%; HEK293 cells expressing human CaV2.2 alpha/beta3/alpha2delta1; read-out: mean pIC50 (tonic pIC50) (converted)
Where a name gives a salt, the structure may show the parent alone.
assay.metric: IC50

| compound | result |
| --- | --- |
| Cc1ccncc1C(=O)N1CCN(S(=O)(=O)c2ccc(C(F)(F)F)cc2)C[C@@H]1C | ≥ 31.6 µM |
| Cc1ccc(C(=O)N2CCN(S(=O)(=O)c3ccc(C#N)cc3C)[C@@H](C)C2)cn1 [Example 52, hydrochloride] | ≥ 31.6 µM |
| Cc1ccc(C(=O)N2CCN(S(=O)(=O)c3ccc(Cl)cc3)[C@@H](C)C2)cn1 | ≥ 31.6 µM |
| CCN(CC)c1ccc(C(=O)N2CCN(S(=O)(=O)c3ccc(C(F)(F)F)cc3)CC2)cn1 | ≥ 10 µM |
| Cc1cc(C)c(C(=O)N2CCN(S(=O)(=O)c3ccc(C#N)cc3C)C[C@@H]2C)cn1 | ≥ 31.6 µM |
| Cc1cc(C#N)ccc1S(=O)(=O)N1CCN(C(=O)c2ccc(N3CCC3)nc2C)[C@@H](C)C1 [Example 40, hydrochloride] | ≥ 31.6 µM |
| Cc1nc(N2CCOCC2)ccc1C(=O)N1CCN(S(=O)(=O)c2ccc(C(F)(F)F)cc2)C[C@@H]1C [Example 34, hydrochloride] | ≥ 10 µM |
| Cc1ncccc1C(=O)N1CCN(S(=O)(=O)c2ccc(C(F)(F)F)cc2)CC1 | ≥ 31.6 µM |
